Data provenance is paper PMC3653958.

Target: NBCe1B/C (electrogenic Na-HCO3 cotransporter) (Rattus norvegicus, UniProt Q9JI66)
Construct: native transporter in basolateral membrane vesicles of rat proximal colon (amiloride-insensitive component)
Sequence (Q9JI66 1-1079): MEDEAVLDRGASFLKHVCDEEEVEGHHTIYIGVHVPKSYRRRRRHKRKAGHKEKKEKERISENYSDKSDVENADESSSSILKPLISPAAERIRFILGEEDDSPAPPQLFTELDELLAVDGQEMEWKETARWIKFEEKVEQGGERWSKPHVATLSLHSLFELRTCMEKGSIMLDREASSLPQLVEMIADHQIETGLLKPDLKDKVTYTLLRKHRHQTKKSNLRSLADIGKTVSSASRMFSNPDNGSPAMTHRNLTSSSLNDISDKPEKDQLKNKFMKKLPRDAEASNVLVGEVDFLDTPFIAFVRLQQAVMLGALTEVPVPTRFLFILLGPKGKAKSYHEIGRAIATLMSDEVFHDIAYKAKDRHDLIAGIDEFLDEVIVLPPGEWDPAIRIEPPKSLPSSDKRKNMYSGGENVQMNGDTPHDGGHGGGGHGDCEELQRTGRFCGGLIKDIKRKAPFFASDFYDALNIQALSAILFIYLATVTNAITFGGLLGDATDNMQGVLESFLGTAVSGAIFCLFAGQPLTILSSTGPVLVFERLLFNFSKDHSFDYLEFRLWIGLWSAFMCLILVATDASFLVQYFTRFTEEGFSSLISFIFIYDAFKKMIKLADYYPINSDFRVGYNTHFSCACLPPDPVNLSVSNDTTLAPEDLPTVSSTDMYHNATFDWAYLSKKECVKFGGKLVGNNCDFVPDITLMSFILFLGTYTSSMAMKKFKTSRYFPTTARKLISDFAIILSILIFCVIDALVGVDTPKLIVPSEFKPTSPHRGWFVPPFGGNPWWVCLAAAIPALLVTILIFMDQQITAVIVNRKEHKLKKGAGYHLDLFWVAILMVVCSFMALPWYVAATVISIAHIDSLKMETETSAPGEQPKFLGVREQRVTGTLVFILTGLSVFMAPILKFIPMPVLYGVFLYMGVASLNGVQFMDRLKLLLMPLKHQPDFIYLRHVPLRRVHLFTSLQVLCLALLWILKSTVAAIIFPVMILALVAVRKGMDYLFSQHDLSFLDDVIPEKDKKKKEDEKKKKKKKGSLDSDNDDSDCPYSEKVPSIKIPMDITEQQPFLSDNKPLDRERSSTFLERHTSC
Assay: inhibition of proton/HCO3 gradient-driven […] uptake in native membrane vesicles
OBSERVED_PROPERTY: Ki (µM)
Numeric answer only, unit µM assumed.

IN: Which Ki is listed for O=S(=O)(O)c1cc(N=C=S)ccc1/C=C/c1ccc(N=C=S)cc1S(=O)(=O)O ?
OUT: 8.9
